# ASSAY INFO: ATG_Oct_MLP_CIS: Attagene CIS-FACTORIAL HepG2 Assay for human Octamer-Binding Transcription Factor (Oct) (AID 2282993)
# STATED CONDITIONS: HepG2 Attagene cis-factorial Oct reporter, mRNA; actives raise or lower the signal
The source made the active and inactive calls. Rule for the calls: active = hit-call score of the fitted dose curve at least 0.9, where 1 is the maximum; inactive = score below 0.9.
Hi! Could you answer with just one of these? True (active), False (inactive)

Look up the recorded call for OC1OC[C@@H](O)[C@H](O)[C@H]1O (stereo partly drawn) in this test.
False

Each molecule tested received a call. Report the one for COC(C)CCO (stereo not drawn) .
True

Name the outcome recorded for "CCCCC/C=C/C=C/C=O" in the assay.
False

Name the outcome recorded for "C=CC(=O)OCCn1c(=O)n(CCOC(=O)C=C)c(=O)n(CCOC(=O)C=C)c1=O" in the assay.
True

Call for entry "CCCCCC(=O)OCCc1ccccc1" :
False

Write down the call the test reported for this molecule. Item: "COc1ccc(Cl)cc1C"
False

Tell me the assay call for "CSc1nc(NC2CC2)nc(NC(C)(C)C)n1" please.
False

# outcome recorded in this test, key = "CC(C)CCCCCCCOC(=O)c1ccc(C(=O)OCCCCCCCC(C)C)c(C(=O)OCCCCCCCC(C)C)c1"
False

# fetch the recorded call for "C=C(C)C(=O)O[C@H]1C[C@@H]2CC[C@@]1(C)C2(C)C" here
False

Per the assay record, what outcome was assigned to "O=[N+]([O-])c1cc(C(F)(F)F)ccc1Cl" ?
False

Please let me know the test result on file for "CC[C@]12CCCN3CCc4c(n(c5ccccc45)[C@@](O)(C(=O)OC)C1)[C@@H]32" .
False

Would you mind telling me which call this test gave "CC(C)(C)C(=O)c1ccccc1" ?
False

// return assay outcome for "COc1cc(C(C)(C)C)c(O)c(C(C)(C)C)c1"
False
